protocol text: yeast display, Sf9 membrane polyspecificity reagent, FACS + sequencing; frameworks hold sequencing errors
outcome measure: polyreactivity (PSR sort gate)

// below: answered sequences
QVQLVESGGGLVQAGGSLRLSCAASGRTLIYNAMGWYRQAPGKERELVAAITGGGGRTYYADSVKGRFTISRDNAQNTVYLQMNSLKPEDTAVYYCAAGETFEMNYWGQGTQVTVSS	low polyreactivity
QVQLVESGGGLVQAGGSLRLSCAASGSIFPIYAMGWYRQAPGKERELVAGIRGRGGRTYYADSVKGRFTISRDNAKNTVYLQMNSLKPEDTAVYYCAKANLTPQGRGDYDYWGQGTQVTVSS	high polyreactivity
QVQLVESGGGLVQAGGSLRLSCAASGITFSYYAMGWYRQAPGKERELVAAINGGGSRTYYADSVKGRFTISRDNAKNTVYLQMNSLKPEDTAVYYCAAYSGQARGYDYWGQGTQVTVSS	high polyreactivity
QVQLVESGGGLVQAGGSLRLSCAASGRTFGAYAMGLYRQEPGKETELVAAISKSGGRTYYADSVKGRFTISRDYAKNTVYLLMNSLKPEDTAVYYCNARGFRGEYDYWGEGTQVTVSS	high polyreactivity
QVQLVESGGGLVQAGGSLRLSCAASGFIFDDNTMGWYRQAPGKERELVAAISYSAGSTYYADSVKGRFTISRDNAKNTVYLQMNSLKPEDTAVYYCNKDAASWDYYGGNDYWGQGTQVTVSS	low polyreactivity
QVQLVESGGGLVQAGGSLRLICAPSGSTNRYYAIGWSRQAPRKEMELVAPISWRGGSTYYADSVKGRFRISRDNANNTVYLEMNSLKPEDTAVYYCNAAYSYAVRDPIDYGYWGQGTQVTVSS	high polyreactivity
QVQLVESGGGLVQAGGSLRLSCAASGLTFYYYAKGWYRQAPGKERDFVAAISRSGGTTYYADSVKGRYTISRDNAKNTVYLQMNSLKPEDTAVYYCNAQWCRYWPSQVIFDYWGQGTQVTVSS	high polyreactivity
QVQLVESGGGLVQAGGSLRLSCAASGSTLAIYAMGWYRQAPGKERELVAAISGGGSTYADSVKGRFTISRDNAKNTVYLQMNSLKPEETAVYYCNADGWGDRFWSNFRFDYWGQGTQVTVSS	low polyreactivity

Dear colleague, I am looking for the recorded polyreactivity (PSR sort gate) of the following sequence: "QVQLVESGGGLVQAGCRLRLSCAASGININAMGWYRQAPGKERELVAAISRGGSTYYADSVKGRFTISRDNAKNTVYLQMNSLKPEDTAVYYCAKLIGRWRLYHTFVKGDYWGQGTQVTVSS"
high polyreactivity

What about this sequence? "QVQLVESGGGLVQAGGSLRLSCAASGRIFTFYAMGWYRQAPGKERELVATIRNGGSTNYADSVKGRFTISRDNAKNTVYLQMNSLKPEDTAVYYCNTYYYGRRRYGYWGQGTQVTVSS"
high polyreactivity

What about this sequence? "QVQLVESGGGLVQAGGSLRLSSAASGYIFQYTAMGCYRQAPGKVRELVAAIRYRGTSTYYADSVKGRFTISRDNAKNTVYLQRNSLKPEDTAVYYCAADRVPGRGFFRYGYWGQGTQVTVSS"
high polyreactivity

What about this sequence? "QVQLVESGGGLVQAGGSLRLSCAASGRTFDRNAMGWYRQAPGKERELVAAISRGGTTYYADSVKGRFTISRDNAKNTVYLQMNSLKPEDTAVYYCARVGRYRYEWGQGTQVTVSS"
high polyreactivity

What about this sequence? "QVQLVESGGGLLQAGGSLSLSCAASGRTFVPYTMGWYRPAPGKERELVAAISWSDGTTYYADSVKGRFTISRDNAKNTVYLQMNSLKPEDTAVYYCNDDVYLFNYFGGWYYAGYDYWGQGTQVTVSS"
high polyreactivity
